Data provenance: patent US20190338002A1

# targetEntity: T1, human alpha CGRP (SEQ ID NO: 80) (human, not fully specified)
# T1 construct: also called human αCGRP; hαCGRP
# T1 peptide: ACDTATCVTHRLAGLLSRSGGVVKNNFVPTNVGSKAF
# assayName: SPR, 37 C, mutein captured, CGRP analyte
In this section, each of the binders is paired with its reported kon.
Note to self: number, then unit, no commentary.

lipocalin mutein SEQ ID NO: 15 (designed binder, biotinylated by NHS chemistry for capture in SPR) QDSTSDLIPAPPLSKVPLQQNFQDNQFHGKWYVVGRAANDRLREDKDPEKMEATIYELKEDKSYNVTDVGFSRKKCIYVIHTFVPGSQPGEFTLGNIKSYPGTTSGLVRVVSTNYNQHAMVFFKVVGQNRESFEITLYGRTKELTSELKENFIRFSKSLGLPENHIVFPVPIDQCIDGSAWSHPQFEK = 6.32e+06 M⁻¹ s⁻¹
lipocalin mutein SEQ ID NO: 9 (designed binder, biotinylated by NHS chemistry for capture in SPR) QDSTSDLIPAPPLSKVPLQQNFQDNQFHGKWYVVGWAGNTLLREDKDPIKMQATIYELKEDKSYDVTWVYLSEKKCNYHIETSVPGSQPGEFTLGTIKSYPGETSILVRVVSTNYNQHAMVFFKGMSQNREIFEITLYGRTKELASELKENFIRFSKSLGLPENHIVFPVPIDQCIDGSAWSHPQFEK = 5.88e+06 M⁻¹ s⁻¹
lipocalin mutein SEQ ID NO: 27 (designed binder, biotinylated by NHS chemistry for capture in SPR) QDSTSDLIPAPPLSKVPLQQNFQDNQFHGKWYVVGWAGNTLLREDKDPIKMQAMIYELKEDKSYNVTWVYFADKKCNYHIETFVPGSQPGEFTLGTIKSYPGETPILVRVVSTNYNQHAMVFFKGVNQNREIFEIVLYGRTKELTNELKENFIRFSKSLGLPENHIVFPVPIDQCIDGSAWSHPQFEK = 1.43e+06 M⁻¹ s⁻¹
lipocalin mutein SEQ ID NO: 7 (designed binder, biotinylated by NHS chemistry for capture in SPR) QDSTSDLIPAPPLSKVPLQQNFQDNQFHGKWYVVGWAGNTLLREDKDPIKMQATIYELKEDKSYNVTWVYFSEKRCNYHIETSVPGSQPGEFTLGTIKSYPGETSILVRVVSTNYNQHAMVFFKGVSQNREIFEITLYGRTKELTSELKENFIRFSKSLGLPENHIVFPVPIDQCIDGSAWSHPQFEK = 3.74e+06 M⁻¹ s⁻¹

The reported kon of the binder lipocalin mutein SEQ ID NO: 4 (designed binder, biotinylated by NHS chemistry for capture in SPR) QDSTSDLIPAPPLSKVPLQQNFQDNQFHGKWYVVGWAGNTLLREDKDPTKMQATIYELKEDKSYNVTWVYFSEKKCNYHIETFVPGSQPGEFTLGTIKSYPGETSILVRVVSTNYNQHAMVFFKGVSQNREIFEITLYGRTKELTSELKENFIRFSKSLGLPENHIVFPVPIDQCIDGSAWSHPQFEK was 1.66e+06 M⁻¹ s⁻¹

kon reported for this binder lipocalin mutein SEQ ID NO: 23 (designed binder, biotinylated by NHS chemistry for capture in SPR) QDSTSDLIPAPPLSKVPLQQNFQDNQFHGKWYVVGWAGNTLLREDKDPIKMQAKIYELKEDRSYNVTWVYFADKKCNYHIETFVPGSQPGEFTLGLIKSYPGETPILVRVVSTNYNQHAMVFFKGVNQNREIFEIILYGRTKELTNELKENFIRFSKSLGLPENHIVFPVPIDQCIDGSAWSHPQFEK : 1.64e+06 M⁻¹ s⁻¹
